Biological target: Sodium-dependent dopamine transporter (Homo sapiens, UniProt Q01959)
Sequence (Q01959 whole entry): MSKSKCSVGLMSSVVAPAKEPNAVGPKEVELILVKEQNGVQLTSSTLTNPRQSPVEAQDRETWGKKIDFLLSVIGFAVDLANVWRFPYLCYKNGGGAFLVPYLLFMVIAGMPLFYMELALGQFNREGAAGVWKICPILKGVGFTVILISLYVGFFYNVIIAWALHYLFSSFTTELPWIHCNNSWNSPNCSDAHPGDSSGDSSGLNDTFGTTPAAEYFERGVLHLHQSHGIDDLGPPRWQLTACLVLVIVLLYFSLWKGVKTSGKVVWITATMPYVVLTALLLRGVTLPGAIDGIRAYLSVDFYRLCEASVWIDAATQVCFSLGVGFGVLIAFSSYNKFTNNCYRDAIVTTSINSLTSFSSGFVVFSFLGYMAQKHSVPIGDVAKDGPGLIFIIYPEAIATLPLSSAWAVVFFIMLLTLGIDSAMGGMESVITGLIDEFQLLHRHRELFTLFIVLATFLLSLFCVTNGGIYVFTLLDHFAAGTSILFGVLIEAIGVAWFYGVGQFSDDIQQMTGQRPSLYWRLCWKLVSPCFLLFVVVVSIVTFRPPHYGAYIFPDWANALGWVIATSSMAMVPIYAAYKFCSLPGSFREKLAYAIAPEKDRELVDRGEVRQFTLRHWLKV
Experiment: DRUGMATRIX: Dopamine Transporter radioligand binding (ligand: [125I] RTI-55)
Format: cell membranes, CHO-K1, Membrane
Details: Not Active = under 50% inhibition at 10 µM; read-out: Ki
Just a reminder that ties go to f: only Ki strictly below 4000 nM counts as t.

- Compound: "Clc1cc(Cl)c(OCC#CI)cc1Cl"
  Study Target: "Sodium-dependent dopamine transporter (Homo sapiens, UniProt Q01959)"
  Group Label: "t"
- Compound: "CC(N)Cc1c[nH]c2ccc(OCc3cccs3)cc12 (stereo not drawn)"
  Study Target: "Sodium-dependent dopamine transporter (Homo sapiens, UniProt Q01959)"
  Group Label: "t"
- Compound: "c1ccc2c(c1)Nc1ccccc1S2"
  Study Target: "Sodium-dependent dopamine transporter (Homo sapiens, UniProt Q01959)"
  Group Label: "f"
- Compound: "COc1ccccc1OCCNCC(O)COc1cccc2[nH]c3ccccc3c12 (stereo not drawn)"
  Study Target: "Sodium-dependent dopamine transporter (Homo sapiens, UniProt Q01959)"
  Group Label: "t"
- Compound: "CN(CCOc1ccc(C[C@H](Nc2ccccc2C(=O)c2ccccc2)C(=O)O)cc1)c1ccccn1"
  Study Target: "Sodium-dependent dopamine transporter (Homo sapiens, UniProt Q01959)"
  Group Label: "f"
- Compound: "CC(C)(c1ccc(O)cc1)c1ccc(O)cc1"
  Study Target: "Sodium-dependent dopamine transporter (Homo sapiens, UniProt Q01959)"
  Group Label: "f"
- Compound: "CCN(CC)C(=S)SSC(=S)N(CC)CC"
  Study Target: "Sodium-dependent dopamine transporter (Homo sapiens, UniProt Q01959)"
  Group Label: "t"
- Compound: "c1ccc2sc(SSc3nc4ccccc4s3)nc2c1 [BENZOTHIAZYL DISULFIDE]"
  Study Target: "Sodium-dependent dopamine transporter (Homo sapiens, UniProt Q01959)"
  Group Label: "t"

---

Molecular target: Cytochrome P450 2C9 (Homo sapiens); also: in other assays of this panel Not Active means under 50% inhibition at 10 µM
Sequence (P11712 whole entry): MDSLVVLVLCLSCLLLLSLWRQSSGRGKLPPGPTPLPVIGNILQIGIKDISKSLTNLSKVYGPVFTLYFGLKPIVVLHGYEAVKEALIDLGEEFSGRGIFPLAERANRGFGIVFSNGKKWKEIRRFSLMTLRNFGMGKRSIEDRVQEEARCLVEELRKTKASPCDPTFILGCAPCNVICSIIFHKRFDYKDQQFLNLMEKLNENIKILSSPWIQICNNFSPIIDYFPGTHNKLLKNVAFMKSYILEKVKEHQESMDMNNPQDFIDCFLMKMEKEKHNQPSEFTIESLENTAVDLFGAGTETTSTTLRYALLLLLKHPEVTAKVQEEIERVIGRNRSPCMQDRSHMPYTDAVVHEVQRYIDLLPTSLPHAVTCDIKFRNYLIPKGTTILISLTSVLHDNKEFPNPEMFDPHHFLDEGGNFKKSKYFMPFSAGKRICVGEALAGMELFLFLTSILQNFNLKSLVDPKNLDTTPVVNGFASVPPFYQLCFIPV
Details: bti-tn-5b1-4
Quantity Kind: Ki

- Substance: "CHROMIC CHLORIDE"
  Quantity Kind: "Ki"
  Result: "Not Active"
- Substance: "POVIDONE"
  Quantity Kind: "Ki"
  Result: "Not Active"
- Substance: "LEAD(IV) ACETATE"
  Quantity Kind: "Ki"
  Result: "Not Active"
- Substance: "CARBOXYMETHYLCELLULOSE"
  Quantity Kind: "Ki"
  Result: "Not Active"
- Substance: "COPPER(II) OXIDE"
  Quantity Kind: "Ki"
  Result: "Not Active"

---

Target: Histamine H2 receptor (Homo sapiens, UniProt P25021); also: in other assays of this panel Not Active means under 50% inhibition at 10 µM
Sequence (P25021 whole entry): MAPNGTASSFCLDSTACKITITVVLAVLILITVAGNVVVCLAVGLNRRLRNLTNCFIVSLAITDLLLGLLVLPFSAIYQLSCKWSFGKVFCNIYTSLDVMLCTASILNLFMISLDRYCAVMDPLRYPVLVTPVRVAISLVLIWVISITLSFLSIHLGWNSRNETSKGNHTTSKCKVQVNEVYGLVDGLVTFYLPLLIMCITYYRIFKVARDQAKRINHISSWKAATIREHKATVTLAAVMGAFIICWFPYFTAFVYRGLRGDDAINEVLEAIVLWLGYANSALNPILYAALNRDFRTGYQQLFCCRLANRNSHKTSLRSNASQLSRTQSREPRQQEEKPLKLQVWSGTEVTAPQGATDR
Format: cell membranes, CHO-K1, Membrane
Details: read-out: Ki
Quick reference for Ki among some molecules

- Molecule: "CNCCCC12CCC(c3ccccc31)c1ccccc12"
  Study Target: "Histamine H2 receptor (Homo sapiens, UniProt P25021)"
  Ki [nM]: 393
- Molecule: "NC(N)=Nc1nc(CSCCC(N)=NS(N)(=O)=O)cs1"
  Study Target: "Histamine H2 receptor (Homo sapiens, UniProt P25021)"
  Ki [nM]: 41
- Molecule: "CC(CN1c2ccccc2Sc2ccccc21)N(C)C (stereo unspecified)"
  Study Target: "Histamine H2 receptor (Homo sapiens, UniProt P25021)"
  Ki [nM]: 1150
- Molecule: "CN1C[C@H](CNC(=O)OCc2ccccc2)C[C@@H]2c3cccc4c3c(cn4C)C[C@H]21"
  Study Target: "Histamine H2 receptor (Homo sapiens, UniProt P25021)"
  Ki [nM]: 959
- Molecule: "CC(C)Cn1cnc2c(N)nc3ccccc3c21"
  Study Target: "Histamine H2 receptor (Homo sapiens, UniProt P25021)"
  Ki [nM]: 1480
- Molecule: "CC(=O)O[C@]1(C(C)=O)CC[C@H]2[C@@H]3C[C@H](C)C4=CC(=O)CC[C@]4(C)[C@H]3CC[C@@]21C [MEDROXYPROGESTERONE ACETATE]"
  Study Target: "Histamine H2 receptor (Homo sapiens, UniProt P25021)"
  Ki [nM]: 27500

Cited source: ChEMBL document CHEMBL1909046
